Conditions: buffer; pH 7.4; 6.0 h; 150.0 µM
Each entry below lists one item and its recorded solubility kinetic value.

| MOLECULE | solubility kinetic |
| --- | --- |
| Cc1nn2c(c1-c1ccccc1OCc1ccccc1)N(C(=O)Cc1ccc3c(c1)OCO3)CCC2 | < 1 µg/mL |
| O=C1Nc2ccc(-c3cccc(C(F)(F)F)c3)cc2C(=O)N2CCN(C(=O)COc3ccccc3)C[C@H]12 | < 1 µg/mL |
| Nc1c(C(=O)Nc2ccc(F)cc2)sc2nc(-c3cccs3)cc(C(F)(F)F)c12 | < 1 µg/mL |
| O=C1CCCC2=C1C(c1ccncc1Cl)N=C(Nc1nc3ccccc3o1)N2 (stereo unspecified) | 8.82 µg/mL |
| Cc1ccc(C)n1-c1cccc(C(=O)O)c1 | > 32 µg/mL |
| Cc1ccccc1C(=O)NC1CCN(c2ccc3nnc(C4CC4)n3n2)CC1 | > 56 µg/mL |
| CCOc1cc(CCNC(=O)c2cc3sccc3n2Cc2ccccc2)cc(F)c1OCC | < 1 µg/mL |
| Cc1c(C)n(Cc2ccccc2)c2ccc(C(=O)OCCN(C)C)cc12 | 33 µg/mL |
| CN1CCN(C(c2ccccc2)c2ccccc2)CC1 | > 39 µg/mL |
| c1ccc(Nc2cc3c(cn2)CN(Cc2ccsc2)CCN3)cc1 | > 75 µg/mL |
| c1ccc(Nc2cc3c(cn2)CN(Cc2ccc4[nH]ccc4c2)CCN3)cc1 | 30.6 µg/mL |
| C[C@]1(CO)CN(c2cc(C(=O)Nc3ccc4c(c3)-c3c(c(C(N)=O)nn3-c3ccc(F)cc3)CC4)c(Cl)cn2)C[C@@]1(C)CO | 18.5 µg/mL |
| COc1ccc(-c2ccc3ncc4c(c3c2)n(-c2ccc(N3CCNCC3)c(C(F)(F)F)c2)c(=O)n4C)cn1 | < 1 µg/mL |
| CCc1[nH]c2ccc(CNC(=O)Cc3cnc4c(C)cccn34)cc2c1C | 17.3 µg/mL |
| O=C1C2=C(Nc3ccccc3SC2c2ccco2)c2ccccc21 (stereo unspecified) | < 1 µg/mL |
| CCN(CCCOc1ccc2c(Nc3cc(CC(=O)Nc4cccc(F)c4)[nH]n3)ncnc2c1)CCOP(=O)(O)O | > 87 µg/mL |
| Fc1ccc(Nc2cc(-c3ccccc3)nc(-c3ccncc3)n2)cc1F | < 1 µg/mL |
| COc1cccc(CNc2ccc(S(=O)(=O)Nc3ccccn3)cc2)c1O | 8.36 µg/mL |
| CCC(=O)NC(c1ccc(OC)cc1)c1cc(Cl)c2cccnc2c1O (stereo unspecified) | < 1 µg/mL |
| Cc1cccc(C)c1NC(=O)c1nc(SC(C)C)ncc1Cl | 1.22 µg/mL |
| Cc1nc(Nc2n[nH]c3c2CN(C(=O)N[C@H](CN(C)C)c2ccccc2)C3(C)C)c2sccc2n1 | > 72 µg/mL |
| O=C1Nc2ccccc2/C1=C/c1ccnc2ccccc12 | 3.07 µg/mL |
| CC(C)=CCNc1ncnc2nc[nH]c12 | > 30 µg/mL |
| COc1ccc(-n2c(C)c(C(C)=O)c3cc(O)ccc32)cc1 | 5.69 µg/mL |
| O=C(NCc1cccs1)c1cn2cc(-c3ccccc3)sc2n1 | < 1 µg/mL |
| C[C@@]1(c2ncncc2F)NC(=O)c2cc(-c3cn[nH]c3)ccc21 | 17.9 µg/mL |
| CCOc1ccc(-c2nc(SCC(=O)Nc3ccc(C)c(C)c3)n3[nH]c(=O)cc3n2)cc1 | < 1 µg/mL |
| CCOC(=O)c1ccc(-n2c(C)cc(-c3nnc4n3CCCCC4)c2C)cc1 | > 56 µg/mL |
| COc1ccc(NC(=O)c2c(C)cccc2C)cc1S(=O)(=O)Nc1ccc(Br)cc1 | < 1 µg/mL |
| c1ccc2c(Nc3nccs3)nc(-c3ccncc3)nc2c1 | < 1 µg/mL |
| CC(C)(C)c1ccc(OCc2nn3c(-c4ccncc4)nnc3s2)cc1 | < 1 µg/mL |
| CC1(C)CC(=O)C2=C(C1)NC(Nc1nc3ccccc3o1)=NC2c1ccccc1Cl (stereo unspecified) | < 1 µg/mL |
| COc1ccccc1NS(=O)(=O)c1cccc(NC(=O)c2[nH]c(C)c(C(C)=O)c2C)c1 | 15.2 µg/mL |
| NC(=O)C1CCN(c2nc(-c3ccc(Oc4ccccc4)cc3)cs2)CC1 | < 1 µg/mL |
| CCOc1ccc(CCNC(=O)c2cc3ccccc3n2CCN2CCOCC2)cc1OCC | 47.5 µg/mL |
| O=C(Nc1nc(-c2ccccc2)cs1)c1ccncc1NS(=O)(=O)c1ccc(N2CCCC2=O)cc1 | 56.9 µg/mL |
